Recorded values, source patent EP2664619B1.

tested on: Aβ42 production; test: Sandwich ELISA measurement of Aβ42 levels in supernatant of treated N2a-APP695 cells; type: cell-based, Mouse; settings: Mus musculus; N2a-APP695 cells, 18h incubation, ELISA assay; read-out: EC50 (µM) at inducing Aβ42 production
READOUT_KIND: EC50 (µM)
State just the number; it will be interpreted in µM.

Aβ42 production assay, molecule CC[C@H](CO)Nc1nc(N(C)Cc2cccc(OC)c2)c2ncn(C(C)C)c2n1 , recorded EC50 = 105

Note to self: EC50 of CC[C@@H](CO)Nc1nc(OCc2ccccc2)c2ncn(C(C)C)c2n1 with Aβ42 production was 21

---

tested on: Aβ42 production; assay: Sandwich ELISA measurement of Aβ42 levels in supernatant of treated N2a-APP695 cells; type: cell-based, Mouse; conditions: Mus musculus; N2a-APP695 cells, 18h incubation, ELISA assay; read-out: EC50 (µM) at inducing Aβ42 production
READOUT_KIND: EC50 (µM)
# number only, unit µM dropped from output

Value sought: EC50, system Aβ42 production, item CC[C@@H](CO)Nc1nc(N(C)Cc2ccc(-c3ccccn3)cc2)c2ncn(C(C)C)c2n1 . Result: 2.8

Query CN(Cc1ccccc1)c1nc(N)nc2[nH]cnc12 [Compound 1, reference compound] on Aβ42 production; EC50 returned: 100

Response field EC50 (Aβ42 production) for item CC[C@H](CO)Nc1nc(N(Cc2ccccc2)C(C)C)c2ncn(C(C)C)c2n1 : 2.5

Fill in: Aβ42 production EC50 for CC(C)n1cnc2c(OCc3ccccc3)nc(OCc3ccccc3)nc21 = 3.5

Record for CC[C@H](CO)Nc1nc(N(C)Cc2ccc(F)cc2)c2ncn(C(C)C)c2n1 under target or system Aβ42 production: EC50 reported as 55

Record CC[C@H](CO)Nc1nc(N(CC)Cc2ccccc2)c2ncn(Cc3ccccc3)c2n1 / Aβ42 production, EC50 recorded as 1.3

Fill in: Aβ42 production EC50 for CCC(CO)Nc1nc(N(C)c2ccc(F)cc2)c2ncn(C(C)C)c2n1 (centres unmarked) = 30

// returns EC50 for CC[C@H](CO)Nc1nc(N2CCc3ccccc32)c2ncn(C(C)C)c2n1 with Aβ42 production; value = 8

Given the compound CC[C@H](CO)Nc1nc(N(C)c2ccccc2)c2ncn(C(C)C)c2n1 and test system Aβ42 production, the measured EC50 is 10.6

Reported Aβ42 production EC50 for item CC[C@H](CO)Nc1nc(N(C)Cc2ccccc2)c2ncn(C3CCCC3)c2n1 was 2.7

Considering CC[C@H](CO)Nc1nc(N(C)Cc2ccccc2)c2ncn(C(C)C)c2n1 , its EC50 with Aβ42 production was recorded as 10

Form: item CCN(CC)CCNc1nc(N(CC)Cc2ccccc2)c2ncn(C3CCCC3)c2n1 ; test system Aβ42 production; EC50: 0.8

Query CC[C@H](CO)Nc1nc(N(C)Cc2ccc(-c3ccccc3)cc2)c2ncn(C(C)C)c2n1 on Aβ42 production; EC50 returned: 0.45

EC50 value, target or system Aβ42 production, for CC[C@H](CO)Nc1nc(N(C)Cc2ccc(-c3ccccn3)cc2)c2ncn(C(C)C)c2n1 : 3.2

Noted EC50 for CC[C@@H](CO)Nc1nc(N(C)c2ccccc2)c2ncn(C(C)C)c2n1 , tested on Aβ42 production: 17
